These measurements were taken from PubChem BioAssay.

- Test Summary: CREB reporter modulators under forskolin, primary screen, cell-based, PC12, CRE-LacZ reporter, forskolin-stimulated (AID 1146);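 note: PC12 cells with 6xCRE LacZ reporter stimulated by forskolin 10 µM; beta-galactosidase reporter signal reflecting CREB driven transcription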
- Assay Conditions: luminescence, 4.5 h, higher = more signal, called active from +8 up or from −8 down
Measured z-score, listed per entry for reference.

{"columns": ["Molecule", "z-score"],
 "data": [
  ["O=C1C2C=CC(C(O)c3ccc(I)cc3)N(Nc3ccccc3)C2C(=O)N1c1ccccc1 (centres undefined)", 0.32],
  ["[N-]=[N+]=NCc1ccccc1C[C@]1(C(=O)N2CCOCC2)COC(c2ccc(OCCCO)cc2)=N1", -0.931],
  ["C[C@]1(C(=O)NCCN2CCOCC2)c2ccccc2C(=O)N(Cc2cc(F)cc(C(F)(F)F)c2)[C@H]1c1ccc(CO)cc1", -0.909],
  ["COCCOC(=O)N1C(=O)[C@@]2(c3ccccc31)[C@H](c1ccc(OCCO)cc1)N1[C@H](c3ccccc3)[C@H](c3ccccc3)OC(=O)[C@H]1[C@@H]2C(=O)N1CCCCCCC1", 3.39]
]}

====

- Target Desc: Epidermal growth factor receptor (Homo sapiens) (UniProt P00533)
- Sequence (P00533 whole entry, looked up): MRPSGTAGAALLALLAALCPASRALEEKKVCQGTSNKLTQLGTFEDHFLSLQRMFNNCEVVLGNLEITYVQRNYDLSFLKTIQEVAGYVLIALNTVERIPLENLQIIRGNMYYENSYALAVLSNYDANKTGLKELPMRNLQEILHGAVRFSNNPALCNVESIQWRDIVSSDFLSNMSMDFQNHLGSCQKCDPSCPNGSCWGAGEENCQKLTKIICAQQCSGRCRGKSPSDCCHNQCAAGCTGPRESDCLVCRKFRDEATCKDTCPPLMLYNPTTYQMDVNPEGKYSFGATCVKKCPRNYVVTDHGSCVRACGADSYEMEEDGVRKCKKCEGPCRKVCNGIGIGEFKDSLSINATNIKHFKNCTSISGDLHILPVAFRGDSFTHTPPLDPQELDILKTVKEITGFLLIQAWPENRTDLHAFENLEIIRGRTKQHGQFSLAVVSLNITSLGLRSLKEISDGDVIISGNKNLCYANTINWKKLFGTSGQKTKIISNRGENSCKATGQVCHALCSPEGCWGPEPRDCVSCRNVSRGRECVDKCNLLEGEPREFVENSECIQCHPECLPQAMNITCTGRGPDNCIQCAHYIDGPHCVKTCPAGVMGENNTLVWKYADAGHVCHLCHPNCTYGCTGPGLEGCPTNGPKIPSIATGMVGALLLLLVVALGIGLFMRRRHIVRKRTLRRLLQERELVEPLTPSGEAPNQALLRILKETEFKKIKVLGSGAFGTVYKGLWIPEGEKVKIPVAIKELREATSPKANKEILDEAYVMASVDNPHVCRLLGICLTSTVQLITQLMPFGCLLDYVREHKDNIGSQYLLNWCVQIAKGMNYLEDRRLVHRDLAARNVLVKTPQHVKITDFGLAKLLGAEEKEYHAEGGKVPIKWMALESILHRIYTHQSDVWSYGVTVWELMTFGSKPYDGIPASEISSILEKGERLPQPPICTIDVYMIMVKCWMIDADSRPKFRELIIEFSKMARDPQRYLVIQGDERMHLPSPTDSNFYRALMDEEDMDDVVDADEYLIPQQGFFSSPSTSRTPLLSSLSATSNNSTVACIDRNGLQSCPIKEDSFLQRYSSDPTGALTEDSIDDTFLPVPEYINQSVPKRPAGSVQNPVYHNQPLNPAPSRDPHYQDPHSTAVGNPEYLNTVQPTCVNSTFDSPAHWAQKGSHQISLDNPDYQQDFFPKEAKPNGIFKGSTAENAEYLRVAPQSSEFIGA
- Test Summary: EGFR binders on small-molecule microarrays, primary screen, biochemical, small-molecule microarray, 635 nm fluorescence (AID 1104);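 note: score merges 667 nm emission intensity with spot signal to noise over triplicate slides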
- Assay Conditions: EGFR binding, higher = more signal
Measured composite z-score, listed per entry for reference.

{"columns": ["Compound", "Target Desc", "composite z-score"],
 "data": [
  ["CCOC(=O)C1=CCN(S(=O)(=O)c2ccc(C)cc2)C1c1ccccc1 (stereo unspecified)", "Epidermal growth factor receptor (Homo sapiens) (UniProt P00533)", 0.204],
  ["COc1cc(CO)cc(I)c1O[C@H]1C=C(C(=O)NCCO)C[C@@H](NCC2CCCCC2)[C@@H]1O", "Epidermal growth factor receptor (Homo sapiens) (UniProt P00533)", 0.151],
  ["O=C1O[C@H](c2ccccc2)[C@H](c2ccccc2)N2[C@H]1[C@@H](C(=O)N1CCCCCCC1)[C@]1(C(=O)Nc3ccc(C#CC4(O)CCCCCC4)cc31)[C@H]2c1ccccc1OCCO", "Epidermal growth factor receptor (Homo sapiens) (UniProt P00533)", 1.96],
  ["C=C(CCCC)C(=O)CC[C@H](OC(=O)c1ccccc1-c1ccccc1C(=O)O)c1ccccc1OCCO", "Epidermal growth factor receptor (Homo sapiens) (UniProt P00533)", -0.226],
  ["CO[C@H]1O[C@H](CO)[C@@H](OC(=O)CCc2ccccc2)[C@H](OC(=O)c2cc3ccccc3[nH]2)[C@H]1OC(=O)c1cc2ccccc2[nH]1", "Epidermal growth factor receptor (Homo sapiens) (UniProt P00533)", 0.543],
  ["COc1cc(NN2C(C(O)c3ccc(I)cc3)C=CC3C(=O)N(c4ccccc4)C(=O)C32)cc(OC)c1OC (stereo unspecified)", "Epidermal growth factor receptor (Homo sapiens) (UniProt P00533)", 0.266],
  ["COC(=O)[C@@]1(Cc2ccccc2)[C@H]2c3cc(C(=O)N(C)C)n(CCn4cc([N+](=O)[O-])nc4C)c3C[C@H]2CN1C(=O)c1ccccc1", "Epidermal growth factor receptor (Homo sapiens) (UniProt P00533)", 0.355],
  ["[N-]=[N+]=NCc1ccccc1[C@H]1OC(c2ccc(OCCCO)cc2)=N[C@@]1(CCS(=O)(=O)c1ccccc1)C(=O)NCc1ccccc1", "Epidermal growth factor receptor (Homo sapiens) (UniProt P00533)", 0.333],
  ["CCOC(=O)C1=CCC(c2ccccc2)N(S(=O)(=O)c2ccc([N+](=O)[O-])cc2)C1 (stereo unspecified)", "Epidermal growth factor receptor (Homo sapiens) (UniProt P00533)", 0.0475],
  ["CCOC(=O)C[C@H]1[C@H](OC(=O)c2cc3ccccc3oc2=O)[C@@H](NC(=O)c2ccc3ccccc3c2)c2cc(OCCCO)ccc2N1C(=O)Cc1ccc(OC)cc1", "Epidermal growth factor receptor (Homo sapiens) (UniProt P00533)", 0.34],
  ["CN1C=C(C(=O)OCCS(C)(=O)=O)C(C(=O)OCCS(C)(=O)=O)=CC(c2ccc(CO)cc2)=CC1c1cccs1 (stereo unspecified)", "Epidermal growth factor receptor (Homo sapiens) (UniProt P00533)", 0.294],
  ["CC(C)c1ccc(NN2C(C(O)Cc3ccccc3)C=CC3C(=O)N(c4ccccc4)C(=O)C32)cc1 (stereo unspecified)", "Epidermal growth factor receptor (Homo sapiens) (UniProt P00533)", 0.399],
  ["O=c1cccc(-c2ccco2)o1", "Epidermal growth factor receptor (Homo sapiens) (UniProt P00533)", 0.693],
  ["COCC(=C=CC[C@@H](O)c1ccc(OCCO)cc1)CCO", "Epidermal growth factor receptor (Homo sapiens) (UniProt P00533)", -0.265],
  ["CCCCC(=C=CC[C@H](O)c1ccc(OCCO)cc1)C[C@H](O)COCc1ccccc1", "Epidermal growth factor receptor (Homo sapiens) (UniProt P00533)", -0.304],
  ["CCCNC(=O)[C@@]1(Sc2ccc(C)cc2)CC(=O)N(C(C)C)[C@@H]1c1ccc(CO)cc1I", "Epidermal growth factor receptor (Homo sapiens) (UniProt P00533)", -1.71],
  ["COc1ccc(C#Cc2ccc3c(c2)[C@]2(C(=O)N3)[C@H](c3ccc(OCCO)cc3)N3[C@H](c4ccccc4)[C@H](c4ccccc4)OC(=O)[C@H]3[C@@H]2C(=O)N2CCc3cc(OC)c(OC)cc3C2)cc1", "Epidermal growth factor receptor (Homo sapiens) (UniProt P00533)", 0.871],
  ["C=CCC(OC(C)=O)[C@@H]1[C@@H](N(Cc2cc3ccccc3o2)C(=O)c2ccc(-c3ccccc3)cc2)c2cc(OCCCO)ccc2N1C(=O)Cc1ccc(OC)cc1 (stereo partly specified)", "Epidermal growth factor receptor (Homo sapiens) (UniProt P00533)", 0.0306],
  ["COc1ccc([Si](C)(C)[C@@H]2[C@@H](CCn3cc([C@H](O)c4ccccc4)nn3)O[C@]3(C(=O)N(c4ccccc4)c4ccccc43)[C@H]2C)cc1", "Epidermal growth factor receptor (Homo sapiens) (UniProt P00533)", -0.302],
  ["CCCCC=C[C@@H](NC(=O)c1ccccc1)c1ccccc1", "Epidermal growth factor receptor (Homo sapiens) (UniProt P00533)", -0.056],
  ["COc1cc(NN2C(C(O)c3cc(OC)c(OC)c(OC)c3)C=CC3C(=O)N(c4ccccc4)C(=O)C32)cc(OC)c1OC (stereo unspecified)", "Epidermal growth factor receptor (Homo sapiens) (UniProt P00533)", 0.165],
  ["CCOC(=O)C[C@H]1[C@H](OC(=O)c2ccccc2-c2ccccc2)[C@@H](NC(=O)c2ccccc2)c2cc(OCCCO)ccc2N1C(=O)c1ccccc1", "Epidermal growth factor receptor (Homo sapiens) (UniProt P00533)", -0.106],
  ["CCOC(=O)C1=C[C@@H](C(C)(C)C)N(S(=O)(=O)c2ccc(C)cc2)[C@H]1c1cccc(Cl)c1", "Epidermal growth factor receptor (Homo sapiens) (UniProt P00533)", 0.427],
  ["CC(C)OC(=O)CC(=O)CC(O)c1ccc([N+](=O)[O-])cc1 (stereo unspecified)", "Epidermal growth factor receptor (Homo sapiens) (UniProt P00533)", -0.41],
  ["[N-]=[N+]=NCc1ccccc1C[C@]1(C(=O)N2CCOCC2)COC(c2ccc(OCCCO)cc2)=N1", "Epidermal growth factor receptor (Homo sapiens) (UniProt P00533)", -0.505],
  ["COC(=O)[C@@]1(Cc2ccc(F)cc2)[C@H]2c3cc(C(=O)N(C)C)n(Cc4ccc(O)c(OC)c4)c3C[C@H]2CN1C(=O)c1ccccc1", "Epidermal growth factor receptor (Homo sapiens) (UniProt P00533)", 0.269]
]}

====

- Test Summary: binders of probe aFGF10 on microarray, primary screen, stem cell growth factor project, biochemical, small-molecule microarray, fluorescence 635/667 (AID 1071);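 note: score merges 667 nm spot intensity and signal to noise from triplicate slides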
- Assay Conditions: higher = more signal
Lab note: anything with composite z-score at or over 0.6 counts as 1.0; the rest go in 0.0.

{"columns": ["Molecule", "Label Class"],
 "data": [
  ["CC(CO)N1C(=O)[C@@H]2[C@H]3C(=O)OCC=C[C@H]3OC23C=CCN(c2ccc(Cl)cc2)C(=O)[C@@H]13 (some centres not stated)", 0.0],
  ["CCc1cccc(NC(=O)O[C@H]2[C@H](OC(=O)Nc3ccccc3)[C@H](OC(=O)Nc3ccccc3)[C@@H](OC)O[C@@H]2CO)c1", 1.0],
  ["COCCOC(=O)N1C(=O)[C@@]2(c3ccccc31)[C@H](c1ccccc1OCCO)N1[C@H](c3ccccc3)[C@H](c3ccccc3)OC(=O)[C@H]1[C@@H]2C(=O)N1CCCCCCC1", 1.0],
  ["CC(=O)N1CC(C(O)C2C=CC3C(=O)NC(=O)C3N2Nc2ccc(Cl)cc2Cl)c2ccccc21 (configuration not stated)", 1.0],
  ["COCCOC(=O)N1C(=O)[C@@]2(c3cc(C#CCC(C(=O)OC)C(=O)OC)ccc31)[C@H](c1ccc(O)cc1)N1[C@H](c3ccccc3)[C@H](c3ccccc3)OC(=O)[C@H]1[C@@H]2C(=O)NC[C@H](O)c1ccccc1", 0.0],
  ["C=C(C(=O)CC[C@@H](OC(=O)c1ccccc1-c1ccccc1C(=O)O)c1ccccc1OCCO)C(C)C", 1.0],
  ["CN1C(=O)C2C(C1=O)C1C=C(CCCO)C2C(c2cccs2)N1Cc1cc2c(cc1Br)OCO2 (configuration not stated)", 1.0]
]}
